Data credit: the NIST ThermoML archive (doi:10.1021/je700662a)

- MEASUREMENT_PROTOCOL: molar heat capacity at constant pressure
- PARTICULARS: 278 K; 101.33 kPa; Crystal 2; Large sample (1 g) DSC
TEST_READOUT: molar heat capacity at constant pressure (J/K/mol)

1. CCCCCCCCCC(N)=O [decanamide]
2. CCCCCCCCCCCCCCCC(N)=O [hexadecanamide]
input: Rank 1 against 2 by their molar heat capacity at constant pressure values and give the higher one. // return label of chosen record
output: 2

---

- MEASUREMENT_PROTOCOL: molar heat capacity at constant pressure
- PARTICULARS: 233 K; 101.33 kPa; Crystal; Large sample (1 g) DSC
TEST_READOUT: molar heat capacity at constant pressure (J/K/mol)

See these solved cases before continuing.
CC(C)(C)C(N)=O [2,2-dimethylpropanamide]	136.6
CC(C)C(N)=O [2-methylpropanamide]	122.8

A. CCCCCCCCCCCCCCCCCCCCCC(N)=O [docosanamide]
B. CCCC(N)=O [butanamide]
input: Which has the smaller recorded molar heat capacity at constant pressure, A or B ? // return label of chosen record
output: B
(B: 118.1 J/K/mol, A: 431.8 J/K/mol)
